# MEASUREMENT NOTES: yeast display, Sf9 membrane polyspecificity reagent, FACS + sequencing; frameworks hold sequencing errors
RESULT TYPE: polyreactivity (PSR sort gate)

>  <SEQ STRING>
QVQLVESGGGLVQAGGSLRLSCASSGTFHKYAMGWYRQAPGKERELVASISRSGGSTSYADSVKGRFTISRDNAKNNVYLQMNSLKPEDTAVYYCNTPWGAYKYDYWGQGTEVTVSS

>  <VALUE>
high polyreactivity

$$$$
>  <SEQ STRING>
QVQLVESGGGLVQAGGSLRLRCAASGGTFGVNAMGWYRQAPGKERELVAAISSSGGRTYYADSVKGRFTISRDNAKNTVYLQMNSLKPEDTAVYYCAARNYFWGQGTQVTVSS

>  <VALUE>
low polyreactivity

$$$$
>  <SEQ STRING>
QVQLVESGGGLVQAGGSLRLSCAASGRIFRLYVMGWYRQAPGKERELVATISSRGGSTYYADSVKGRFTISRDNAKNTVYLQMNSLKPEDTAVYYCAAVSRYRYGYDYWGQGTQVTVSS

>  <VALUE>
high polyreactivity

$$$$
>  <SEQ STRING>
QVQVVESGGGLVQAGGSLRLSCAASGSISSWYALGWYRPAAGYERELVADISSGVNTYYADSVKGRFTISRDNAKNTVYLQMNSLKTEDTAVYYCNAESLTFADPFYNYTYDYWGQGTQVTVSS

>  <VALUE>
low polyreactivity

$$$$
>  <SEQ STRING>
QVQLVESGGGLVQAGGSLRLSCAASGRTFYTNAMGWYRQAPGKERELVAGISWGDGNTYYADSVKGRFTISRDNAKNTVYLQMNSLKPEDTAVYYCAVTYIILWSYSHTEFDYWGQGNQVTVSS

>  <VALUE>
low polyreactivity

$$$$

The origin of these recorded values is the nanobody polyreactivity screen of Harvey et al. (2022).
